Consider the following compounds; for each one, report its pEC50.
# Test system: Human HPV (Papillomaviridae)
# testSummary: Human HPV antiviral assay (EC50)
# Type: cell-based, human papilloma virus
# conditionDetails: Human papillomavirus, read-out: Human HPV (Papillomaviridae) EC50
Answers are plain numbers, as −log10 of the molar value.

Worked set:
[
  {
    "compound": "COc1ccc(-c2sc(NC(C)(C)c3ccccn3)nc2C)cc1S(=O)(=O)Nc1c(C)cccc1F [Compound S-45]",
    "measuredOn": "Human HPV (Papillomaviridae)",
    "pEC50": 5.28
  },
  {
    "compound": "COc1ccc(-c2sc(NC(C)C3CCOCC3)nc2C)cc1S(=O)(=O)Nc1ccccc1Cl (stereo not drawn) [Compound B]",
    "measuredOn": "Human HPV (Papillomaviridae)",
    "pEC50": 5.68
  }
]

Switching to the query record.
Recorded result, Nc1nc2c(ncn2CCOCP(=O)(O)O)c(=O)[nH]1 [PC2, 9-[2-(phosphono-methoxy)ethyl]guanine, reference compound] , pEC50: 5.55

###

# testSummary: Cell toxicity (CC50) in HRV assay
# conditionDetails: human, HRV CC50
Please respond with rule met when measured CC50 is strictly beneath 40 µM, and with rule not met in all other cases.

Item COc1ccc(-c2sc(NC(C)(C)C3CCNCC3)nc2C)cc1S(=O)(=O)Nc1ccc(F)cc1Cl [Compound S-52] : CC50 beneath 40 µM, strictly? rule met

Item COc1ccc(-c2sc(N[C@H](C)c3ccccc3)nc2C)cc1S(=O)(=O)Nc1c(C)cccc1F [Compound S-75] : CC50 beneath 40 µM, strictly? rule not met

Item COc1ccc(-c2sc(NC(C)(C)C3CCOCC3)nc2C)cc1S(=O)(=O)Nc1cccnc1C [Compound S-3] : CC50 beneath 40 µM, strictly? rule not met

Item COc1ccc(-c2sc(NC3(C4CCOCC4)CC3)nc2C)cc1S(=O)(=O)Nc1ccc(Cl)cc1Cl [Compound S-14] : CC50 beneath 40 µM, strictly? rule met

Item COc1ccc(-c2sc(NC(C)(C)C3CCOCC3)nc2C)cc1S(=O)(=O)Nc1cccnc1C(F)(F)F [Compound S-15] : CC50 beneath 40 µM, strictly? rule not met

Item COc1ccc(-c2sc(NC(C)(C)c3ccccc3)nc2C)cc1S(=O)(=O)NC1CCN(C=O)CC1 [Compound S-43] : CC50 beneath 40 µM, strictly? rule not met

Item COc1ccc(-c2sc(NC(C)(C)C3CCOCC3)nc2C)cc1S(=O)(=O)Nc1ncccc1C [Compound S-25] : CC50 beneath 40 µM, strictly? rule met

Item COc1ccc(-c2sc(NC(C)(C)C3CCOCC3)nc2C)cc1S(=O)(=O)Nc1c(C)cccc1F [Compound S-1] : CC50 beneath 40 µM, strictly? rule met

Item COc1ccc(-c2sc(NC(C)(C)C3CCN(C(C)=O)CC3)nc2C)cc1S(=O)(=O)Nc1cccnc1C [Compound S-21] : CC50 beneath 40 µM, strictly? rule not met

Item COc1ccc(-c2sc(NC(C)(C)c3ncccn3)nc2C)cc1S(=O)(=O)Nc1ccccc1C(F)(F)F [Compound S-35] : CC50 beneath 40 µM, strictly? rule not met

Item COc1ccc(-c2sc(NC3(C4CCOCC4)CC3)nc2C)cc1S(=O)(=O)Nc1ccccc1Cl [Compound S-19] : CC50 beneath 40 µM, strictly? rule met
